Biological target: Adenosine receptor A2b (Homo sapiens, UniProt P29275)
Sequence (P29275 whole entry): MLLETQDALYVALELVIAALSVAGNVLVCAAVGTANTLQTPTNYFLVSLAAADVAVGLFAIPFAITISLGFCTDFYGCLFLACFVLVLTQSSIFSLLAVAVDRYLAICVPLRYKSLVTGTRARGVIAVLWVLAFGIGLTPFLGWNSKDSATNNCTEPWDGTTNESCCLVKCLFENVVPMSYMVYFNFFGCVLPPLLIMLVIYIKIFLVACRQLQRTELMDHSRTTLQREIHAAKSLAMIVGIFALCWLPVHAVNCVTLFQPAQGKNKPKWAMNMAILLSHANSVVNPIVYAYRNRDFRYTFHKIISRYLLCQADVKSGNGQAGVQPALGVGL
Assay: […] from human adenosine A2B receptor expressed in CHO cell membranes
Settings: in the assay text read “[3H]PSB-603” for “[3H]PSB-602”
Ki values by entry

For orientation, consider the following solved cases.
[[record]]
structure_string = "CCCn1c(=O)c2c(nc3n2CCCN3CCc2ccc(OCC(=O)NCc3cccc(Cl)c3)cc2)n(CCC)c1=O"
property = "Ki"
observed_measurement = "> 1000 nM"

[[record]]
structure_string = "CCCCn1c(=O)c2c(nc3n2CCCN3CCc2ccc(OCC(=O)NCCc3ccccn3)cc2)n(CCCC)c1=O"
property = "Ki"
observed_measurement = "> 1000 nM"

[[record]]
structure_string = "CCCn1c(=O)c2c(nc3n2CCCN3CCc2ccc(OCC(=O)NCCc3ccc(S(N)(=O)=O)cc3)cc2)n(CCC)c1=O"
property = "Ki"
observed_measurement = "> 1000 nM"


Then this compound:
Prompt: What Ki value was documented for this compound, `CCCn1c(=O)c2c(nc3n2CCCN3CCc2ccc(OCC(=O)NCCCn3ccnc3)cc2)n(CCC)c1=O` ?
Completion: 862 nM

###

Molecular target: UniProt:P29275
Assay: […] from human adenosine A2B receptor expressed in CHO cell membranes
Conditions: in the assay text read “[3H]PSB-603” for “[3H]PSB-602”
pKi: −log10 of the molar value.
property: pKi

[[record]]
structure_string = "CCCn1c(=O)c2c(nc3n2CCCN3CCc2ccc(OCC(=O)NCCN(CC)CC)cc2)n(CCC)c1=O"
property = "pKi"
observed_measurement = 6.75

[[record]]
structure_string = "CCCn1c(=O)c2c(nc3n2CCCN3CCc2ccc(OCC(=O)NCCN3CCOCC3)cc2)n(CCC)c1=O"
property = "pKi"
observed_measurement = 6.04

[[record]]
structure_string = "CCCCn1c(=O)c2c(nc3n2CCCN3CCc2ccc(OCC(=O)NCCCN(CC)CC)cc2)n(CCCC)c1=O"
property = "pKi"
observed_measurement = 6.90

[[record]]
structure_string = "CCCCn1c(=O)c2c(nc3n2CCCN3CCc2ccc(OCC(=O)NCCN3CCOCC3)cc2)n(CCCC)c1=O"
property = "pKi"
observed_measurement = 6.53


P. CCCCn1c(=O)c2c(nc3n2CCCN3CCc2ccc(OCC(=O)NCCCn3ccnc3)cc2)n(CCCC)c1=O
Q. CCCn1c(=O)c2c(nc3n2CCCN3CCc2ccc(OCC(=O)NCCCN3CCCC3)cc2)n(CCC)c1=O
Prompt: Compare reported pKi values for P and Q . Which is lower? Refer to your chosen item by its label in the answer.
Completion: Q
(Q: 6.34, P: 6.56)

###

Biological target: Adenosine receptor A2b (Homo sapiens)
Test: […] from human adenosine A2B receptor expressed in CHO cell membranes
Settings: in the assay text read “[3H]PSB-603” for “[3H]PSB-602”
property: Ki

[[record]]
structure_string = "CCCn1c(=O)c2c(nc3n2CCCN3CCc2ccc(OCC(=O)NCc3ccc(Cl)cc3)cc2)n(CCC)c1=O"
property = "Ki"
observed_measurement = "> 1000 nM"

[[record]]
structure_string = "CCCCn1c(=O)c2c(nc3n2CCCN3CCc2ccc(OCC(=O)NCc3ccc(F)cc3)cc2)n(CCCC)c1=O"
property = "Ki"
observed_measurement = "> 1000 nM"


Prompt: Name the recorded Ki for `CCCn1c(=O)c2c(nc3n2CCCN3CCc2ccc(OCC(=O)NCCc3ccccn3)cc2)n(CCC)c1=O` .
Completion: > 1000 nM

Prompt: Further, for `CCCCn1c(=O)c2c(nc3n2CCCN3CCc2ccc(OCC(=O)NCc3ccc(Cl)cc3)cc2)n(CCCC)c1=O` ?
Completion: > 1000 nM

Prompt: // next record `CCCn1c(=O)c2c(nc3n2CCCN3CCc2ccc(OCC(=O)NCc3ccccc3)cc2)n(CCC)c1=O`
Completion: > 1000 nM

Prompt: Next entry: `CCCCn1c(=O)c2c(nc3n2CCCN3CCc2ccc(OCC(=O)NCCc3ccc(S(N)(=O)=O)cc3)cc2)n(CCCC)c1=O`
Completion: > 1000 nM

Prompt: Continue with `CCCn1c(=O)c2c(nc3n2CCCN3CCc2ccc(OCC(=O)NCc3ccc(F)cc3)cc2)n(CCC)c1=O`
Completion: > 1000 nM

Prompt: Also need `CCCn1c(=O)c2c(nc3n2CCCN3CCc2ccc(OCC(=O)NCc3cccc(OC)c3)cc2)n(CCC)c1=O` , thanks.
Completion: > 1000 nM
